Where do the numbers come from? From patent US20080182851A1.

Target: human SCD1 enzyme (Homo sapiens, UniProt O00767)
Sequence (O00767 1-359): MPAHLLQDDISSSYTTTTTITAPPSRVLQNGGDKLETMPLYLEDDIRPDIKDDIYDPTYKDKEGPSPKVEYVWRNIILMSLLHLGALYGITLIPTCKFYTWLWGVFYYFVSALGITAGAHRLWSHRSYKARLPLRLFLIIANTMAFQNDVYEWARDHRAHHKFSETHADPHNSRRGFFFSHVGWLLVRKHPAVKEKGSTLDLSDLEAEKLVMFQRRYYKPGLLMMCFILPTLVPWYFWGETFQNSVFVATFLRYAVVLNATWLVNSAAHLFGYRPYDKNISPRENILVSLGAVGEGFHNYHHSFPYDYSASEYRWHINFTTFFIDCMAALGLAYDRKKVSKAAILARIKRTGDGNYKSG
Experiment: Tritiated water release assay (conversion of radiolabeled stearoyl-CoA to oleoyl-CoA)
Assay type: biochemical
Settings: 10 μM concentration of test compounds; microsomal SCD1, 3H stearoyl CoA, 37° C. 30 minutes; percent of control reaction; read-out: % Inhibition
MEASURED PROPERTY: inhibition at 10 µM (%)
One number for each entry, in %.

CC(C)(C)C(=O)Oc1cccc(C#Cc2ccc(N3CCC(Oc4ccccc4F)CC3)nn2)c1; 27
Oc1ccc(C#Cc2ccc(N3CCC(O)(Cc4cc(Cl)ccc4Cl)CC3)nn2)cc1; 93
O=C(c1ccccc1C(F)(F)F)N1CCN(c2ccc(C#Cc3ccc(O)cc3)nn2)CC1; 89

Required: inhibition at 10 µM, one value per compound below.
1. CC(=O)Oc1cccc(C#Cc2ccc(N3CCC(Oc4ccccc4F)C3)nn2)c1 (stereo in doubt)
2. O=C(c1ccccc1C(F)(F)F)N1CCN(c2ccc(C#Cc3ccccc3)cn2)CC1
3. O=C(c1cc(Cl)ccc1Cl)N1CCN(c2ccc(C#Cc3cccc(O)c3)cn2)CC1
4. Oc1ccc(C#Cc2ccc(N3CC(Oc4ccccc4F)C3)nn2)cc1
5. Fc1ccccc1OC1CCN(c2ccc(C#Cc3cccnc3)cn2)CC1
6. O=C(c1ccccc1C(F)(F)F)N1CCN(c2ccc(C#CCOC3CCCC3)cn2)CC1
7. O=C(c1cc(Cl)ccc1Cl)N1CCN(c2ccc(C#CCO)cn2)CC1
8. O=C(c1cc(Cl)ccc1Cl)N1CCN(c2ccc(C#Cc3cnccn3)cn2)CC1

92
38
98
96
37
86
57
29

Give me inhibition at 10 µM for each of these compounds, listed below.
1. Fc1ccccc1OC1CCN(c2ccc(C#Cc3ccc4c(c3)OCO4)cn2)CC1
2. Oc1ccc(C#Cc2ccc(N3CCC(O)(Cc4ccccc4F)CC3)nn2)cc1
3. Oc1cccc(C#Cc2ccc(N3CCN(CC4CCCCC4)CC3)nn2)c1
4. Fc1ccccc1OC1CCN(c2ccc(C#Cc3ccc(OCCN4CCOCC4)cc3)nn2)CC1
5. O=C(c1ccccc1C(F)(F)F)N1CCN(c2ccc(C#CCO)nn2)CC1

1: 38; 2: 94; 3: 96; 4: 37; 5: 51

Here are 4 compounds. What values of inhibition at 10 µM were reported for them?
1. CC(=O)Oc1ccc(C#Cc2cnc(N3CCN(C(=O)c4ccccc4C(F)(F)F)CC3)s2)cc1
2. CC(=O)Nc1cccc(C#Cc2ccc(N3CCN(C(=O)c4ccccc4C(F)(F)F)CC3)nc2)c1
3. Cc1cccc(C#Cc2cnc(N3CCC(Oc4ccccc4F)CC3)nc2)c1
4. N#Cc1cccc(C#Cc2ccc(N3CCN(C(=O)C4CCCC4)CC3)nn2)c1

1. 47
2. 23
3. 36
4. 47
